Give measured log10(TGI) for each item. Keep answers brief.
- Test system: RXF 393 renal
- assay-notes: NCI tumour cell line growth inhibition, 48 h
Log scale reminder: TGI in µM, then log10 taken.

CCCCCCOc1ccc(Nc2c(O)c3c(c(O)c2Cl)C(=O)C=CC3=O)cc1 : 0.64
Cc1cccc(C)c1NC(=O)C(=O)C(C(=O)c1ccccc1-c1ccccc1)C1OC(=O)c2ccccc21 (stereo unspecified) : 1.45
O=C(O/C=C\OC1CCCC1(c1ccccc1)c1ccccc1)c1ccccc1 (stereo unspecified) : 1.18

Hi, could you look up log10(TGI) for each item in my list?
1. COCC1(CO)C(=O)C2CCN1CC2 (stereo unspecified)
2. CN1C(=O)/C(=C/c2c(Cl)n(C)c3ccccc23)c2ccccc21
3. CCCCCOc1ccc(/C=N/Nc2cc(C)nc3ccc(Br)cc23)cc1

Output line:
1. 1.48
2. 0.58
3. 0.50

Where these numbers come from: PubChem BioAssay (NCI)
